# System: Mel-DCC-11-R
# Assay protocol: cell viability relative to DMSO control (fraction of DMSO control); higher = less cytotoxic, active = 0.8 or less
# Condition summary: 1 µM; 120 h; vemurafenib co-treatment 0 µM
Recorded metric: cell viability
One number for each entry.

Look over these answered cases.
// sample `Cn1cnc2c(F)c(Nc3ccc(Br)cc3F)c(C(=O)NOCCO)cc21` , its cell viability was 0.664

// sample `Nc1c2ccccc2nc2ccccc12` , its cell viability was 1.26

// sample `C#C[C@]1(O)CC[C@H]2[C@@H]3CCc4cc(OC5CCCC5)ccc4[C@H]3CC[C@@]21C` , its cell viability was 0.953

// sample `CC(C)(S)[C@@H](N)C(=O)O` , its cell viability was 1.12

// sample `Cc1cc(Nc2ncc(Cl)c(Nc3ccccc3S(=O)(=O)C(C)C)n2)c(OC(C)C)cc1C1CCNCC1` , its cell viability was 1.17

Look up cell viability for the entries below, preserving their order.
1. COc1ccc2cc1Oc1ccc(cc1)C[C@H]1c3cc(c(OC)cc3CCN1C)Oc1c(OC)c(OC)cc3c1[C@H](C2)N(C)CC3
2. Nc1nc(=O)c2c(CCc3ccc(C(=O)N[C@@H](CCC(=O)[O-])C(=O)[O-])cc3)c[nH]c2[nH]1.[Na+].[Na+] [Pemetrexed Disodium Hydrate]
3. Nc1ccn([C@@H]2O[C@H](CO)[C@@H](O)C2(F)F)c(=O)n1

1. 0.886
2. 1.11
3. 0.869

###

# Test system: Mel-DCC-11
# Assay protocol: cell viability relative to DMSO control (fraction of DMSO control); higher = less cytotoxic, active = 0.5 or less
# Condition summary: 1 µM; 120 h
Allowed answers: active, inactive

For orientation, consider the following solved cases.
Hey, what did the test say about O=c1[nH]c(=O)n([C@H]2C[C@H](O)[C@@H](CO)O2)cc1F [Floxuridine] ? inactive

Hey, what did the test say about COC(=O)C[C@](O)(CCCC(C)(C)O)C(=O)O[C@@H]1C(OC)=CC23CCCN2CCc2cc4c(cc2[C@H]13)OCO4 (stereo partly drawn) [Homoharringtonine] ? active

Hey, what did the test say about CCCCCCCCCCCCCCCCCCOCC(O)CO (stereo not drawn) [Batyl alcohol] ? inactive

Next:
Hey, what did the test say about COc1ccc([C@@H]2CC(=O)c3c(O)cc(O)cc3O2)cc1O [Hesperetin] ? inactive

###

# System: Mel-DCC-11
# Assay protocol: cell viability relative to DMSO control (fraction of DMSO control); higher = less cytotoxic, active = 0.5 or less
# Condition summary: 1 µM; 120 h
Response field label takes Satisfied when cell viability is strictly below 1 and Not satisfied in all other cases.

Strictly below 1: is that where cell viability of C#Cc1cccc(Nc2ncnc3cc4c(cc23)OCCOCCOCCO4)c1 [Icotinib] sits? Not satisfied

Strictly below 1: is that where cell viability of O=NN(CCCl)C(=O)NC1CCCCC1 [Lomustine] sits? Not satisfied

Strictly below 1: is that where cell viability of C[C@@H]1C[C@H]2[C@@H]3CCC4=CC(=O)C=C[C@]4(C)[C@@]3(F)[C@@H](O)C[C@]2(C)[C@@]1(O)C(=O)COP(=O)([O-])[O-].[Na+].[Na+] [Dexamethasone Sodium Phosphate] sits? Not satisfied

Strictly below 1: is that where cell viability of COc1ccc2cc3[n+](cc2c1OC)CCc1cc2c(cc1-3)OCO2 [Berberine] sits? Not satisfied
